Known Kd of a selection of binders
Target: T1, human IL-18BP (human, UniProt O95998 31-194)
T1 construct: UniProt printed as 095998; also called hIL-18BP
T1 sequence: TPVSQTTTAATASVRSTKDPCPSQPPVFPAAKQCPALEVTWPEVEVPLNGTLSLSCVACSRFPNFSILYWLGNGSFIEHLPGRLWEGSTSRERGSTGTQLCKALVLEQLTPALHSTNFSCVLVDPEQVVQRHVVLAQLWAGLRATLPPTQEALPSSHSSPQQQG
Assay: BLI, apparent KD
measurementLabel: Kd (nM)

# binder, measurementLabel, valueUnits, result
measured = [
    ("SA301a LC-Y94V (antibody, V domains shown) VH: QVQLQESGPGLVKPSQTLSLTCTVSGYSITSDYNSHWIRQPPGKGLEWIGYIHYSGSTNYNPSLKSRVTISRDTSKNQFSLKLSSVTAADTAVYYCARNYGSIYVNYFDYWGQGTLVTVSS VL: EIVLTQSPATLSLSPGERATLSCSASSSVSYMYWYQQKPGQAPRPLIYRTSNLASGIPARFSGSGSGTDFTLTISSLEPEDFAVYYCQQYHSVPTFGGGTKVEIK", "Kd", "nM", 2.35),
    ("SA301a LC-Q89F (antibody, V domains shown) VH: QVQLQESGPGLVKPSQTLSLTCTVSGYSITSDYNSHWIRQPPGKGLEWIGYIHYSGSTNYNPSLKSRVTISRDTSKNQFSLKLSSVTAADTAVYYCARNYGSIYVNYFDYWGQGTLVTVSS VL: EIVLTQSPATLSLSPGERATLSCSASSSVSYMYWYQQKPGQAPRPLIYRTSNLASGIPARFSGSGSGTDFTLTISSLEPEDFAVYYCFQYHSYPTFGGGTKVEIK", "Kd", "nM", 0.4),
    ("SA301a LC-Y94G (antibody, V domains shown) VH: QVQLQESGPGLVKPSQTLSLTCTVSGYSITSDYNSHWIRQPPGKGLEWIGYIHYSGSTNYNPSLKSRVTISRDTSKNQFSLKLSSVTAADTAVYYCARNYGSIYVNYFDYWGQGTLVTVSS VL: EIVLTQSPATLSLSPGERATLSCSASSSVSYMYWYQQKPGQAPRPLIYRTSNLASGIPARFSGSGSGTDFTLTISSLEPEDFAVYYCQQYHSGPTFGGGTKVEIK", "Kd", "nM", 0.12),
    ("SA301a LC-T96Y (antibody, V domains shown) VH: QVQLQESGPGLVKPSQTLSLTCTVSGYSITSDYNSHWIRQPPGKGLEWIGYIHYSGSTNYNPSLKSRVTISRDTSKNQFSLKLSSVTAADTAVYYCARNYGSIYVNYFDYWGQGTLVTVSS VL: EIVLTQSPATLSLSPGERATLSCSASSSVSYMYWYQQKPGQAPRPLIYRTSNLASGIPARFSGSGSGTDFTLTISSLEPEDFAVYYCQQYHSYPYFGGGTKVEIK", "Kd", "nM", 0.22),
]
